All figures here come from PubChem BioAssay (NCI).

# Tested on: MDA-MB-468 breast
# Test protocol: NCI-60 one-dose screen, 48 h (100 = growth as untreated, 0 = no growth, -100 = all killed)
# Condition parameters: 10 µM unless noted
# Description: Growth inhibition of the MDA-MB-468 human Breast tumor cell line is measured as a screen for anti-cancer activity. Cells are grown in 96 well plates and exposed to the test compound for 48 hours. Compounds are tested at a single concentration, which is 10^-5 M for most compounds. The reported endpoint is percent growth (GI% or GIPRCNT), where numbers from 0 - 100% represent growth inhibition, and numbers from -100% - 0 represent cell death. […]
This is part of a sample that, as a whole, favours compounds with a hit. Of some 83,000 tested, about 20% had one in any assay.
I'd appreciate it if you could supply growth values for the items below.
One number for each entry, in %.

The cases that follow already have their growth on record.
// query What value of growth has been recorded for this entry: COC12C=C/C(=C(/C(=O)OCc3ccncc3)C(=O)CCCCCCCCC3(OC)C=C/C(=C(/C(=O)OCc4ccncc4)C(=O)CCCCCCCC1)O3)O2
// result -39

// query Repeat for the following compound: O=C(O)COc1ccc(Cl)cc1C1CCCCC1
// result 97.6

// query Another compound to check: CCOC(=O)c1ccc2c(c1)nc(-c1ccc(Cl)cc1)n2-c1cc(C(C)(C)C)[nH]n1
// result 18.7

Record growth per entry; entries follow.
1. CC(NC(N)=S)c1ccccc1 (stereo not drawn)
2. Cc1[nH]c(C(=O)Nc2ccc(C(=O)NCCN)cc2OC(C)C)c(Cl)c1Cl
3. COc1ccc(C2CC(c3ccc(OC)cc3OC)=NN2c2ccc(S(N)(=O)=O)cc2)cc1 (stereo not drawn)

// result
-11.5
-43.6
64.8

I have 2 compounds here; please give me growth for each one.
1. CC(C)CC(NC(=O)C(CCCN=C(N)N)NC(=O)OCc1ccccc1)C(=O)NC(CNC(=O)/C=C/c1ccccc1)C(C)C (stereo not drawn)
2. CC1/C=C/C=C/C=C/C=C/C=C/C=C/C=C/C(O[C@@H]2O[C@H](C)[C@H](O)[C@@H](O)[C@@H]2N)CC(O)C(C(=O)O)C(O)CC(=O)CC(O)CC(O)CC(O)CC(=O)CCCC(=O)CC(=O)OC1C(C)CC(C)C(O)CC(=O)c1ccc(N)cc1 (stereo partly drawn)

// result
1: 94.4; 2: -89.7
